src = PubChem BioAssay

# procedure details: MM1S cell viability effects, profiling panel, calcein-AM fluorescence, 48 h, basal (AID 1165);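 note: viability of MM1S multiple myeloma cells under basal unstimulated conditions; test concentration not given here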
# condition label: higher = more signal
// not met strictly below -1 in z-score; met otherwise

Known results for compounds:
INSERT INTO assay_data (compound, discrete_label) VALUES
  ('C=C(CCCC)/C(=C/C[C@@H](OC(C)=O)c1cccc(OCCO)c1)c1cc(C(=O)OC)ccc1OC', 'not met'),
  ('CC(C)c1ccc(NN2C(C(O)C(C)c3ccccc3)C=CC3C(=O)N(c4ccccc4)C(=O)C32)cc1 (configuration not stated)', 'not met'),
  ('C=CCNC(=O)[C@@H]1[C@H]2C(=O)O[C@H](c3ccccc3)[C@H](c3ccccc3)N2[C@H](c2ccc(OCCO)cc2)[C@@]12C(=O)N(C(=O)OCCOC)c1ccccc12', 'met'),
  ('Cc1ccc(N2C(=O)c3ccccc3[C@@H](C(=O)NCCN3CCOCC3)[C@@H]2c2ccc(CO)cc2)nc1', 'met'),
  ('O=C1O[C@@H](c2ccccc2)[C@@H](c2ccccc2)N2[C@@H](c3ccccc3OCCO)[C@]3(C(=O)Nc4ccc(C#CC5(O)CCCCCC5)cc43)[C@@H](C(=O)N3CCCCCCC3)[C@H]12', 'met');

Decide: z-score of `CN(C)CCCCCCNC(=O)[C@@H]1C[C@@H]2C(=O)N[C@@H](CCCC[N+](C)(C)C)C(=O)N2[C@@H]1c1cccc(OCCO)c1` >= -1? met

Determine whether this compound has z-score no lower than -1: `COC(=O)[C@@]1(Cc2ccc(F)cc2)[C@H]2c3cc(C(=O)N4CCCC4)n(CCSCCO)c3C[C@H]2CN1C(=O)c1ccccc1` not met
